biological target: HLA-A*02:01; assay: IEDB peptide-MHC binding, cellular MHC/competitive/fluorescence; bounds were set here for any values at or beyond the usual limits of such assays; conditions: source organism: Mammarenavirus lassaense
measure name: IC50

1) MSIQLINKAV
7.21 µM
2) YCSNIKLQVV
8.6 µM
3) CNYSKYWYL
16.3 µM
4) LNQAVNNLV
7.96 µM

====

molecular target: HLA-A*02:01; assay: IEDB peptide-MHC binding, purified MHC/competitive/radioactivity; bounds were set here for any values at or beyond the usual limits of such assays; details: source organism: SARS-CoV1
pIC50: −log10 of the molar value.
measure name: pIC50

1) VVFLHVTYV
8.41
2) FLIVAALVFL
7.96
3) LLFNKVTLA
8.30
4) TQWSLFFFV
9.11
5) NLLLLFVTI
6.70
6) QLMCQPILL
9.02
7) LMSFTILCLV
8.08
8) RILGAGCFV
7.70
9) TLGVYDYLV
8.57
10) LVTSFLLMIV
6.11
11) MLIIFWFSL
5.94
12) ALVFLILCFT
6.79
13) LLFQLCTFT
6.08
14) LIVNSVLLFL
7.57
15) IVNSVLLFL
7.17
16) MVMCGGSLYV
7.85
17) TMADLVYAL
8.19
18) YLLGLSAIM
8.96
19) FVFNGTSWFI
8.96
20) LAFVVFLLV
6.21
21) LIDFYLCFL
9.05
22) ALVLLILMTA
6.49
23) FLAFLLFLV
8.08
24) MLWCKDGHV
7.52
25) NLWNTFTRL
8.16
26) VLWAHGFEL
9.40
27) LLLWISVKV
7.89
28) ALVCYIVMPV
8.25
29) LVFLILCFT
6.29
30) ITAIYVFCI
6.90
31) FLLNKEMYL
8.96
32) HAFLCLFLL
8.68
33) LVFLWLLWPV
8.31
34) CLDAGINYV
9.04
35) SLPSYAAYA
8.41
36) YLVQQESSFV
7.12
37) YQCGHYTHI
7.70
38) YLMCLSPLMA
9.19
39) VMCGGSLYV
9.41
40) KIILFLTLI
6.85
41) FLNGSCGSV
8.24
42) LMWFIISIV
8.01
43) QMLSVVGFLV
8.12
44) AQFLYLYAL
9.41

Data credit: the Immune Epitope Database (IEDB)
